- Tested on: Wolbachia pipientis
- run_description: Anti-Wolbachia Cell-Based Screen
- Format: functional
- Parameters: scale not given: in the data most compounds retested in dose-response had high values
- condition_notes: 5 µM
About 13,000 (27%) of roughly 48,000 compounds showed an effect of 50% or more. This is one part of the list.
# Percent Effect per entry
The response must be a number in % with no trailing unit.

Example compounds with recorded Percent Effect:
{"compound": "CCc1noc(C(C)N2CCC(N3CCCC3)CC2)n1 (centres undefined)", "Percent Effect (%)": -6.719}
{"compound": "NC(=O)c1cccc(OCC(=O)N2CCCC(n3cccn3)C2)c1 (centres undefined)", "Percent Effect (%)": -3.677}
{"compound": "CN(C)CCN1Cc2ncn(C)c2C(COCC(=O)N(C)C)C1 (centres undefined)", "Percent Effect (%)": 87.7}
{"compound": "Cc1ncccc1OC1(C(=O)NCCc2ccccn2)CCNCC1", "Percent Effect (%)": -3.101}

Request: Report Percent Effect, nothing else, for this compound: Cc1c(Br)cccc1C(=O)NC(C)CN1CCCC1=O (centres undefined)
Result: -7.738

Request: Give the reported Percent Effect for this compound. COc1ccc(N2CCC(NC(=O)c3ccc(C#N)cc3)CC2)cc1
Result: 89.14

Request: Check the records and state Percent Effect for Cc1noc(C(C)N2CCN(CCN3CCCC3=O)CC2)n1 (centres undefined)
Result: 121

Request: Write down Percent Effect measured for item Cc1ccccc1S(=O)(=O)N1CCCCC1c1ccn[nH]1 (centres undefined)
Result: 0.4281

Request: Specify measured Percent Effect for COCC(=O)N[C@H](C)c1onc(-c2ccccc2)c1C(=O)O .
Result: -4.041

Request: Output Percent Effect of COc1ccc(N2CCC(NC(=O)c3sccc3C)CC2)cc1
Result: 79.74

----------
Attribute: Percent Effect
- System: Wolbachia pipientis
- run_description: Anti-Wolbachia Cell-Based Screen
- Format: functional
- Design: scale not given: in the data most compounds retested in dose-response had high values
- condition_notes: 5 µM
About 13,000 (27%) of roughly 48,000 compounds showed an effect of 50% or more. Some of the results follow.
Lab book: enter the figure in %, no units written.

{"molecule": "c1cc2c(cc1CN1CCN(Cc3noc(C4CC4)n3)CC1)OCO2", "Percent Effect, %": 111.2}
{"molecule": "CN1CCN(C2CCN(Cc3noc(C4CC4)n3)CC2)C1=O", "Percent Effect, %": 10.17}
{"molecule": "CC(Cn1ccnc1)NC(=O)C1(c2ccc(F)cc2)CC1 (stereo unspecified)", "Percent Effect, %": 6.075}
{"molecule": "Cc1cccc(C2(C(=O)NCC(C)CN3CCCC3=O)CC2)c1 (stereo unspecified)", "Percent Effect, %": -2.528}
{"molecule": "O=C(NCc1nncn1C1CC1)C1(c2cccc(F)c2)CCOCC1", "Percent Effect, %": 0.3927}
{"molecule": "CCC(CN1CCCCC1)NC(=O)C1(c2cccc(F)c2)CC1.O=C(O)CC(O)(CC(=O)O)C(=O)O (stereo unspecified)", "Percent Effect, %": 128.4}
{"molecule": "Cc1nccn1C1CCCN(C(=O)c2ccc3c(c2)nc(C)n3C)C1 (stereo unspecified)", "Percent Effect, %": 109.3}
{"molecule": "Cc1nc2cc(C(=O)N3CCCC(n4cncn4)C3)ccc2n1C (stereo unspecified)", "Percent Effect, %": -4.268}
{"molecule": "CC1CN(C(=O)C2(c3cccc(F)c3)CCOCC2)CCO1 (stereo unspecified)", "Percent Effect, %": -11.59}
{"molecule": "CC(C)NC(=O)c1ccc2nnc(C3CN(C)CCN3C)n2c1.O=C(O)C(F)(F)F.O=C(O)C(F)(F)F (stereo unspecified)", "Percent Effect, %": -4.33}

Let us examine a further case.
Request: # return Percent Effect of Cc1cc(C)n(CC(C)NC(=O)C2(c3ccc(F)cc3)CC2)n1 (stereo unspecified) (system: Wolbachia pipientis)
Result: -1.516
